# TESTED_TARGET: Ataxin-2 (Homo sapiens)
# TEST: qHTS for Inhibitors of ATXN expression.
# Type: functional
Out of some 400,000 compounds screened, about 2,100 (0.53%) were called active. Another 14% or so got no clear call; they are omitted. How the calls were made is not given here. What follows is part of a selection rich in actives, with near analogues and random picks from the rest.
Can you answer with just one of these options? 1.0 (active), 0.0 (inactive)

Examples from the recorded data:
MOLECULE | ASSIGNED_LABEL
N=c1n(Cc2ccc(Cl)cc2)c2ccccc2n1CC(O)COc1ccccc1 (configuration not stated) | 1.0
Cc1ccc(NC2=C(C(=O)Nc3c(C)cc(C)cc3C)C(=N)C(C(=O)Nc3ccc(OC(F)(F)F)cc3)S2)cc1 (configuration not stated) | 1.0
CCC(C)Sc1nc(O)c2cnn(-c3ccc(F)cc3)c2n1 (configuration not stated) | 0.0
CN(CCc1ccccc1)C(C(=O)Nc1ccc2c(c1)OCCO2)c1ccnc2ccccc12 (configuration not stated) | 1.0
Cn1c(=O)c(/C=C/c2ccc(F)cc2)nc2ccccc21 | 0.0
C[C@@H]1O[C@H](O[C@@H]2[C@H](C)O[C@H](O[C@@H]3[C@H](C)O[C@H](O[C@H]4CC[C@]5(C)[C@@H](CC[C@@H]6[C@H]5C[C@@H](O)[C@]5(C)[C@@H](C7=CC(=O)OC7)CC[C@]65O)C4)C[C@@H]3O)C[C@@H]2O)C[C@H](O)[C@@H]1O | 1.0
COCc1cc(C)nc2sc(C(=O)Nc3ccc(OC(F)(F)F)cc3)c(N)c12 | 0.0
NC(=O)c1cccc2cc3ccccc3cc12 | 0.0
CC(C)=Cc1c(O)n2ccccc2nc1=O | 0.0
N#Cc1cnn2c(-c3cccc([N+](=O)[O-])c3)ccnc12 | 0.0

Now take the following molecule into account.
Hello, I am checking results. What call was entered for O=C1OCCN1C(=O)[C@H]1[C@H](c2ccc(F)cc2)C(c2cccc(Cl)c2)=NN1c1ccccc1 ? 0.0
